Recorded IC50 ± SD, HeLa by entry
Test system: HeLa cells
Assay: MTT assay, HeLa
Format: cell-based, human
Conditions: MTT, 24 h
quantity-measured: IC50 ± SD, HeLa

[
  {
    "molecule": "O=c1cc(-c2ccc(O)cc2)oc2c([C@@H]3O[C@H](CO)[C@@H](O)[C@H](O)[C@H]3O)c(O)c([C@@H]3OC[C@@H](O)[C@H](O)[C@H]3O)c(O)c12 [Vicenin-1]",
    "result": ">50 µg/mL"
  },
  {
    "molecule": "O=c1cc(-c2ccc(O)cc2)oc2c([C@@H]3O[C@H](CO)[C@@H](O)[C@H](O)[C@H]3O)c(O)c([C@@H]3O[C@H](CO)[C@@H](O)[C@H](O)[C@H]3O)c(O)c12 [Vicenin-2]",
    "result": ">50 µg/mL"
  },
  {
    "molecule": "C[C@H]1CC[C@@]2(OC1)O[C@H]1C[C@H]3[C@@H]4CC=C5C[C@@H](O)CC[C@]5(C)[C@H]4CC[C@]3(C)[C@H]1[C@@H]2C [Yamogenin]",
    "result": "16.5 ± 0.59 µg/mL"
  },
  {
    "molecule": "O=c1cc(-c2ccc(O)cc2)oc2c([C@@H]3OC[C@@H](O)[C@H](O)[C@H]3O)c(O)c([C@@H]3O[C@H](CO)[C@@H](O)[C@H](O)[C@H]3O)c(O)c12 [Vicenin-3]",
    "result": ">50 µg/mL"
  }
]
